Parameter phenotypically active: see the listing below.
# Tested on: HepG2-CANX-COX4
# assay summary: phenotypically active (imaging signature differs from DMSO and reproducible) at any of 0.3-9 uM (binary (1 = active, 0 = inactive)); higher = active
# stated conditions: treatment time: 24 h
quantity kind: phenotypically active

• C#C[C@]1(O)CC[C@H]2[C@@H]3CCc4cc(OC5CCCC5)ccc4[C@H]3CC[C@@]21C = 0
• Cc1cc2nc(NCCCO)n(CC(=O)c3cc(C(C)(C)C)c(O)c(C(C)(C)C)c3)c2cc1C = 0
• CC1(C)CC(=O)C2=C(C1)NC(=S)NC2c1cccc(O)c1 (configuration not stated) = 1
• C/C(=C/C(=O)Nc1ccccc1C(=O)O)c1ccc2ccccc2c1 = 0
• Nc1ncnc2c1c(-c1cnc3[nH]ccc3c1)nn2C1CCCC1 = 1
• Cc1ccc(/C(=C/CN2CCCC2)c2cccc(/C=C/C(=O)O)n2)cc1 = 1
• CC1(C)CCC(c2ccc(Cl)cc2)=C(CN2CCN(c3ccc(C(=O)NS(=O)(=O)c4ccc(N[C@H](CCN5CCOCC5)CSc5ccccc5)c(S(=O)(=O)C(F)(F)F)c4)cc3)CC2)C1 = 0
• CC(=O)NCC(=O)N1[C@@H]2CC[C@H]1c1ccc(Nc3ncc(C(F)(F)F)c(NC4CCC4)n3)cc12 = 1
• CCCCCOC(=O)Nc1nc(=O)n([C@@H]2O[C@H](C)[C@@H](O)[C@H]2O)cc1F = 0
• CNC(=C[N+](=O)[O-])NCCSCc1ccc(CN(C)C)o1 = 0
• O=C(O/N=C1\c2ccccc2-c2nc3ccccc3nc21)c1ccco1 = 0
• CN1CC(=O)N2[C@H](c3ccc4c(c3)OCO4)c3[nH]c4ccccc4c3C[C@@H]2C1=O = 0
• CCCc1nc(C)c2c(C)nc3ccc(OC)nc3n12 = 0
• O=S(=O)(N[C@H](CO)C(C(F)(F)F)C(F)(F)F)c1ccc(Cl)s1 = 0
• COc1ccc(C(C)=O)c(O)c1 [2'-Hydroxy-4'-Methoxyacetophenone] = 0
• CCCc1nc(C(C)(C)O)c(C(=O)OCc2oc(=O)oc2C)n1Cc1ccc(-c2ccccc2-c2nnn[nH]2)cc1 = 0
• CN(C)C(=O)C(CCN1CCC(O)(c2ccc(Cl)cc2)CC1)(c1ccccc1)c1ccccc1 [loperamide] = 0
